This listing pairs proteins with measured Enzyme Activity Endpoint Assay: Fab′2.
- systemTested: pooled human IgG (human IgG1, 2, 3 and 4)
testReadout: Enzyme Activity Endpoint Assay: Fab′2 (ng/µL)

>  <protein>
PRT-261 (protein) MVTSVWTKGVTPPTNFTYGEDVLHAPYVANQGWYDITKLFNGKDNLLCGAATAGNMLHWWFDQNKEQIENYLKKHPEKQKINFNGEQLFDVKEAIDTKDSQLDSKLFDYFKEKAFPNLSTKHLGVFPDHVIDMFINGYRLSLLNHGPTPVKRGSKDKRGGIFDAVFTRGVQSKLLTNRHDFKEKTLKEISDLIKQELTEGKALGISHTYANGRINHVINLWGADFDAEGNLEAIYVTDSDTNPSIGMKKYFVGVNSSGKVAISAKEIEEDNIGAQVLGLFTLSTGQDIWNQTN

>  <unitOfMeasurement>
ng/µL

>  <observed>
0

$$$$
>  <protein>
PRT-541 (protein) MANQEIRYSKNENPNVTIKWVHGIGEPTQAEKEKIEFWWYETTTTKFFNNRKVDHLGDGNQCWAKTDSNMLHWWFVQNEENINQYIAKKNITGKINFNGEQMFDVKEGIDDNQEKEKSYIANTFRTKKAHNLSTKHKGDYIINGLSWYLYGLNNFKIAHGPTPVKKKPKFYGPALFKDVFSRGDGNTPIIVETDFKEYTKKEFEDTLSAALDSKKAIGINIYGSNVDYQHAITLWGAAFDEEENIIAIYVVDNNFKFENRIFPYGIWYQKEGRPYLFNYEINSFVKNRYVGEVTTLDKGEAQWQETNLEHHHHHH

>  <unitOfMeasurement>
ng/µL

>  <observed>
0

$$$$
>  <protein>
PRT-571 (protein) MANQEIRYSEETPSTITSVWTKGVTPPTQFIQNEDVLHAPYIANQGWYDITKTFNGKDDLLCGAATAGNMLHWWFDQNKEQIENYLKKHPEKQKINFNGEQMFDVKEAIDTKDSQTDSALFEYFKDKAFPYLSTKHLGVFPDHVIDMFINGYRLSLTNHGPTPVKRGTKDPRGGIFDAVFTRGDQSKLLTSRHDFKEKTLNEISDLIKQELTEGKALGLSHTYANVRINHVINLWGADFNAEGNLEAIYVTDSDSNASIGMKKYYVGVNAAGKVAISAKEIEGDNIGAQVLGLFTLSTGQDIWNQTNLEHHHHHH

>  <unitOfMeasurement>
ng/µL

>  <observed>
786

$$$$
>  <protein>
PRT-518 (protein) MVTSVWTKGVTPPTDFIKGEDVFHAPYKAGQGWYDITKTFNGKDNLLCGAATAGNMLHWWFDQNKEYIEAYLKKHPEKQKIIFNNQELFDLKAAINTKGSQKNSELFNYFRDKAFPNLSARRLGVFPDLVLDMFINGYYLNVTKTQTTDVNRTYQEKDKRGGIFDAVFTRGVQSKLLTSRHDFKEKGLKEISDLIKQELTEGKALGLSHTYANVRINHVINLWGADFDSDGNLKAIYVTDSDTNASIGMKKYFVGVNSAGKVAISAKEIKEDNIGAQVLGLFTLSTGQDIWNQTNLEHHHHHH

>  <unitOfMeasurement>
ng/µL

>  <observed>
1220

$$$$
>  <protein>
PRT-471 (protein) MVTSVWTKGVTPPTDFIYGEDVLHAPYKAGQGWYDITKAFDGGDDLLCGAATAGNMLHWWFDQNKEQIENYLKKHPEKQKINFNGEQMFDVKEAIDTKDSQTNSELFNYFKEKAFPYLSTKHLGVFPDHVIDMFINGYRLSLTNHGPTPVKRGSKDPRGGIFDAVFTRGDQSKLLTNRHDFKEKTLKEISDLIKQELTEGKALGISHTYANVRINHVINLWGADFDAEGNLEAIYVTDSDSNASIGMKKYFVGVNSNGKVAISAKEIEEDNIGAQVLGLFTLSTGQDIWNQTNLEHHHHHH

>  <unitOfMeasurement>
ng/µL

>  <observed>
1110

$$$$
